# Tested on: MEL
# METHOD_DESCRIPTION: Growth inhibition of MEL cells after 48 hrs
# Format: functional, cell-based
# CONDITION_SUMMARY: Mus musculus
MEASUREMENT_TYPE: growth inhibition (GI)

INSERT INTO assay_data (smiles_entry, measurement_type, value) VALUES
  ('c1ccn(-c2nnn(CCCCCCCn3nnc(-n4cccc4)n3)n2)c1', 'growth inhibition (GI)', 'Dose-dependent effect'),
  ('c1ccn(-c2nnn(Cc3ccc(Cn4nnc(-n5cccc5)n4)cc3)n2)c1', 'growth inhibition (GI)', 'Dose-dependent effect'),
  ('c1ccn(-c2nnn(CCCCCn3nnc(-n4cccc4)n3)n2)c1', 'growth inhibition (GI)', 'Dose-dependent effect'),
  ('CNC(=O)c1cccn1-c1nnn(CCCCCCn2nnc(-n3cccc3C(=O)NC)n2)n1', 'growth inhibition (GI)', 'Dose-dependent effect');

// next item, growth inhibition (GI) requested
Data point: c1ccn(-c2nnn(CCCCCCn3nnc(-n4cccc4)n3)n2)c1 ; growth inhibition (GI) = Dose-dependent effect
